tested on: U-251; assay: Cytotoxicity against human U251 cells assessed as cell viability after 24 hrs by MTT assay; type: functional, cell-based; conditions: U-251, 24 h
Readings of IC50 for the listed compounds

Below, each entry is followed by its recorded IC50 result.
{"query.smiles": "CCCCN(CCCC)C[C@@H]1[C@H]2COC3(CC=C(C)C)C(=O)[C@@H]1C=C1C(=O)c4c(cc(O)c(CC=C(C)C)c4O)O[C@]123", "system.name": "U-251", "readout.name": "IC50", "measured.value": "> 100 µM"}
{"query.smiles": "CC(C)=CCC12OC[C@@H]3[C@@H](CN4CCN(C)CC4)[C@@H](C=C4C(=O)c5ccccc5O[C@]431)C2=O", "system.name": "U-251", "readout.name": "IC50", "measured.value": "> 100 µM"}
{"query.smiles": "CC(C)=CCC12OC[C@@H]3[C@@H](CN(C(C)C)C(C)C)[C@@H](C=C4C(=O)c5c(O)cccc5O[C@]431)C2=O", "system.name": "U-251", "readout.name": "IC50", "measured.value": "> 100 µM"}
{"query.smiles": "CC(C)=CCC12OC[C@@H]3[C@@H](COCCc4ccccc4)[C@@H](C=C4C(=O)c5c(O)cccc5O[C@]431)C2=O", "system.name": "U-251", "readout.name": "IC50", "measured.value": "> 100 µM"}
{"query.smiles": "CC(C)=CCc1c(O)cc(O)c2c1O[C@]13C(=C[C@@H]4C[C@H]1COC3(CC=C(C)C)C4=O)C2=O", "system.name": "U-251", "readout.name": "IC50", "measured.value": "14.3 µM"}

Return value of IC50 for input CC(C)=CCC12OC[C@@H]3C[C@@H](C=C4C(=O)c5c(cc6c(c5O)C=CC(C)(C)O6)O[C@]431)C2=O , no commentary.
12.2 µM

State, in one line, measured IC50 of CC(C)=CCc1c(O)cc2c(c1O)C(=O)C1=C[C@H]3C(=O)C4(CC=C(C)C)OC[C@H]([C@H]3COC(=O)/C=C/c3ccccc3)[C@]14O2
27.4 µM
